Cited source for all entries: the supplement of paper PMC10065799

# targetOrSystem: Grb2 SH2 (UniProt P62993)
# Sequence (P62993 whole entry, looked up, the tested form may be a part): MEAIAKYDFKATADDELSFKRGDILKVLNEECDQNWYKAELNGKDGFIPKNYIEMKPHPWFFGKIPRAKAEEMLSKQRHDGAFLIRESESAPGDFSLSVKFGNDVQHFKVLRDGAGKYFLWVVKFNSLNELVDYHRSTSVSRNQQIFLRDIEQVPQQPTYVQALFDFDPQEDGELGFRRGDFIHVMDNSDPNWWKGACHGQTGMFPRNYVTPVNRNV
# assayProtocol: SH2 binding enrichment of the phosphorylated peptide, bacterial display (enrichment ratio); higher = better substrate or ligand; peptides without Tyr show the background;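 also: peptide library displayed on the E. coli surface as eCPX fusions, selected cells deep-sequenced, score is each peptide's frequency after selection divided by its frequency in the input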
Record Satisfied whenever SH2 binding enrichment is at 0.9 or higher; record Not satisfied when lower.

> print(dat)
                residuecodes  assignedcategory
1  ILGLEYSLRVP [HELZ2_Y1304]     Not satisfied

Exam item: decide whether the reported SH2 binding enrichment for GEDLSYGDLPP [IRS1_Y151_V154L] is at least 0.9.
Not satisfied

Exam item: decide whether the reported SH2 binding enrichment for MFCAGYDTKQE [F10_Y407] is at least 0.9.
Not satisfied

Exam item: decide whether the reported SH2 binding enrichment for HSGLAYTMERS [GLUD1_Y512] is at least 0.9.
Not satisfied

Exam item: decide whether the reported SH2 binding enrichment for ATGLIYIGSHD [AASDH_Y870_T865A] is at least 0.9.
Not satisfied

Exam item: decide whether the reported SH2 binding enrichment for YLGEEYVKAVG [TF_Y674] is at least 0.9.
Not satisfied

Exam item: decide whether the reported SH2 binding enrichment for VKANTYENFWP [GATM_Y100_K102N_YF] is at least 0.9.
Satisfied

Exam item: decide whether the reported SH2 binding enrichment for DNPAKYFILES [DPP10_Y512] is at least 0.9.
Not satisfied

Exam item: decide whether the reported SH2 binding enrichment for PSDLLYILDIQ [ITGA2B_Y845] is at least 0.9.
Satisfied

Exam item: decide whether the reported SH2 binding enrichment for AAQNCYKVTNA [TPI1_Y105_G110A] is at least 0.9.
Satisfied

Exam item: decide whether the reported SH2 binding enrichment for PPSGEYFGHCG [TRIP6_Y275_Q278H] is at least 0.9.
Satisfied

Exam item: decide whether the reported SH2 binding enrichment for RYVTRHIYNRE [HLA-DQB1_Y62_Y62H] is at least 0.9.
Not satisfied
